System: ragweed (common ragweed, Ambrosia artemisiifolia)
Assay: Test C preemergence, visual plant response rating
Assay type: in vivo
Settings: Test C, 125 g ai/ha, 0 is no effect, 100 is complete control
MEASURE_NAME: Ragweed plant response rating (0 to 100 scale)

Previously resolved entries follow.
> print(dat)
                           structure.smiles  endpoint.result
1  CON=C(c1cc(F)cc(F)c1F)c1c(O)c(C)nn(C)c1=O               70
2  CON=C(c1cc(Cl)cc(Cl)c1F)c1c(O)c(C)nn(C)c1=O              100
3  CO/N=C(/c1cccc(/C=C\Cl)c1)c1c(O)c(C)nn(C)c1=O               20

I would be grateful if you could provide Ragweed plant response rating (0 to 100 scale) for each of the following entries.
1. CC(C)O/N=C(/c1c(O)c(Cl)nn(C)c1=O)c1ccc(F)c2ccccc12
2. C#CCO/N=C(/c1cccc(Br)c1)c1c(O)c(C)nn(C)c1=O

[reply]
90
80

I would be grateful if you could provide Ragweed plant response rating (0 to 100 scale) for each of the following entries.
1. CO/N=C(/c1cc(Cl)c(F)c(Cl)c1)c1c(O)c(C)nn(C)c1=O
2. CON=C(c1cc(Cl)cc(F)c1Cl)c1c(O)c(C)nn(C)c1=O
3. C#CCO/N=C(/c1cccc(/C=C\Cl)c1)c1c(O)c(C)nn(C)c1=O

[reply]
1: 30; 2: 40; 3: 10
